Recorded IC50, one value per entry.
testedSystem: recombinant human transglutaminase 2 (Homo sapiens)
Sequence (P21980 whole entry): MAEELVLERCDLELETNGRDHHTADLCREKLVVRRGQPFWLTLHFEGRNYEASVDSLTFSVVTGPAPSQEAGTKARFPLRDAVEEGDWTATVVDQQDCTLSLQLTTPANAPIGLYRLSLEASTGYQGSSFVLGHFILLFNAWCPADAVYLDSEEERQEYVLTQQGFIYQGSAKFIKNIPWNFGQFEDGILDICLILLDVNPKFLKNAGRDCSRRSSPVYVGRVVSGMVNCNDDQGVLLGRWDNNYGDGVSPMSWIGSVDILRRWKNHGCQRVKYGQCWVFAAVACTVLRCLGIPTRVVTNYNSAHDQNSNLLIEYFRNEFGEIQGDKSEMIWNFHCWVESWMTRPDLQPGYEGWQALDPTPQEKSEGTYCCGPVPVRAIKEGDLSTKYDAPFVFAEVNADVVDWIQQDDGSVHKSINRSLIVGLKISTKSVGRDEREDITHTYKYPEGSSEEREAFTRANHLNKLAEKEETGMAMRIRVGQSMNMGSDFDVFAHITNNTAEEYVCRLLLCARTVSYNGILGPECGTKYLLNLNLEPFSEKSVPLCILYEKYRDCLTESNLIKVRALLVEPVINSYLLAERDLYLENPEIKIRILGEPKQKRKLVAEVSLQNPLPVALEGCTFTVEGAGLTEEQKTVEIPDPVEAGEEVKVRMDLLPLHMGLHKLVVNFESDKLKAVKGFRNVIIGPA
testDescription: Transglutaminase assay (dansylcadaverine incorporation into dimethylcasein, DCC-assay)
runConditions: recombinant human TG2 10 nM, dansylcadaverine/dimethylcasein, 37° C.

Below, 10 molecules whose answers are already recorded.
[[record]]
molecule = "Cc1nc2ncccc2cc1C(=O)N[C@@H](CC/C=C/C(=O)NC1CCCC1)C(=O)Nc1cccn(CC(=O)NC23CC(C2)C3)c1=O"
observed = "250 to 1500 nM"

[[record]]
molecule = "COC(=O)/C=C/CC[C@H](NC(=O)c1snnc1C)C(=O)Nc1cccn(CC(=O)N[C@@H]2C[C@H]3CC[C@@H]2C3)c1=O"
observed = "< 25 nM"

[[record]]
molecule = "COC(=O)/C=C/CC[C@H](NC(=O)c1oc2ccccc2c1C)C(=O)Nc1cccn(CC23CC4CC(CC(O)(C4)C2)C3)c1=O"
observed = "250 to 1500 nM"

[[record]]
molecule = "COC(=O)/C=C/CC[C@H](NC(=O)c1oc2ccccc2c1C)C(=O)Nc1cccn(CC(=O)NC2CC3CCC2CC3)c1=O (stereo partly shown)"
observed = "< 25 nM"

[[record]]
molecule = "COC(=O)/C=C/CC[C@H](NC(=O)[C@@H]1C[C@H](Br)CN1)C(=O)Nc1cccn(CC(=O)NC2C3CC4CC(C3)CC2C4)c1=O (stereo partly shown)"
observed = "25 to 250 nM"

[[record]]
molecule = "COC(=O)/C=C/CC[C@H](NC(=O)c1cncn1C)C(=O)Nc1cccn(CC(=O)NC2C3CC4CC(C3)CC2C4)c1=O (stereo partly shown)"
observed = "< 25 nM"

[[record]]
molecule = "COC(=O)/C=C/CC[C@H](NC(=O)c1oc2ccccc2c1C)C(=O)Nc1cccn(CC(=O)NC23CC4CC(C)(CC(C)(C4)C2)C3)c1=O"
observed = "< 25 nM"

[[record]]
molecule = "C=CCNC(=O)/C=C/CC[C@H](NC(=O)c1ccc2cnccc2n1)C(=O)Nc1cccn(CC(=O)NC23CC(C2)C3)c1=O"
observed = "25 to 250 nM"

[[record]]
molecule = "COC(=O)/C=C/CC[C@H](NC(=O)c1oc2ccccc2c1C)C(=O)Nc1cccn(CC(=O)NC23CC4CC(CC(O)(C4)C2)C3)c1=O"
observed = "25 to 250 nM"

[[record]]
molecule = "COC(=O)/C=C/CC[C@H](NC(=O)c1oc2ccccc2c1C)C(=O)Nc1cccn(CC(=O)NC2C3CC4CC2CC(Br)(C4)C3)c1=O (stereo partly shown)"
observed = "< 25 nM"


Task: What IC50 appears in the records for this molecule with recombinant human transglutaminase 2 (Homo sapiens)? COC(=O)/C=C/CC[C@H](NC(=O)c1cc2cc(Br)ccc2s1)C(=O)Nc1cccn(CC(=O)NC2C3CC4CC(C3)CC2C4)c1=O (stereo partly shown)
Result: < 25 nM

Task: Same again, this time with COC(=O)/C=C/CC[C@H](NC(=O)c1oc2ccccc2c1C)C(=O)Nc1cccn(CC(=O)NC2(C#N)C3CC4CC(C3)CC2C4)c1=O (stereo partly shown)
Result: 25 to 250 nM

###

Entries and their logD values follow.
testDescription: Log D shake flask method (octanol / PBS pH 7.4, HPLC)
Format: physicochemical
runConditions: octanol/phosphate-buffered saline (PBS); octanol / PBS pH 7.4, shake flask

[[record]]
compound = "COC(=O)/C=C/CC[C@H](NC(=O)c1cnnn1C)C(=O)Nc1cccn(CC(=O)N[C@H]2C[C@H]3CC[C@]2(C)C3(C)C)c1=O [III-121]"
testreadout = "logD"
observed = "1 to 3"


Task: If you can, please state the reported logD value of COC(=O)/C=C/CC[C@H](NC(=O)c1cncn1C)C(=O)Nc1cccn(CC(=O)NC23CC4CC(C)(CC(C)(C4)C2)C3)c1=O [III-88] .
Result: 1 to 3

Task: Please answer likewise for COC(=O)/C=C/CC[C@H](NC(=O)c1oc2ccccc2c1C)C(=O)Nc1cccn(CC(=O)NC2C3CC4CC2CC(Br)(C4)C3)c1=O (stereo partly shown) [III-41]
Result: 3 to 5

Task: COC(=O)/C=C/CC[C@H](NC(=O)c1cnsn1)C(=O)Nc1cccn(CC(=O)NC23CC(C2)C3)c1=O [III-173] ?
Result: < 1

Task: Please do the same for COC(=O)/C=C/CC[C@H](NC(=O)c1oc2ccccc2c1C)C(=O)Nc1cccn(CC(=O)N[C@@H]2C[C@H]3CC[C@@H]2C3)c1=O [III-63] as well.
Result: 3 to 5

Task: Record: O=C(/C=C/CC[C@H](NC(=O)c1nc(Br)cs1)C(=O)Nc1cccn(CC(=O)NC23CC(C2)C3)c1=O)NCc1ccccc1 [III-155]
Result: 1 to 3

Task: // next record COC(=O)/C=C/CC[C@H](NC(=O)[C@@H]1CCCN1C(C)=O)C(=O)Nc1cccn(CC(=O)NC2C3CC4CC(C3)CC2C4)c1=O (stereo partly shown) [III-21]
Result: 1 to 3

Task: Please answer likewise for COC(=O)/C=C/CC[C@H](NC(=O)c1cc2ccccc2s1)C(=O)Nc1cccn(CC(=O)NC2C3CC4CC(C3)CC2C4)c1=O (stereo partly shown) [III-5]
Result: 3 to 5

Task: Proceed to COC(=O)/C=C/CC[C@H](NC(=O)c1cncc([N+](=O)[O-])c1)C(=O)Nc1cccn(CC(=O)NC2C3CC4CC(C3)CC2C4)c1=O (stereo partly shown) [III-34]
Result: 3 to 5

Task: How about COC(=O)/C=C/CC[C@H](NC(=O)c1oc2ccccc2c1C)C(=O)Nc1cccn(CC(=O)NC23CCCC4CC(CCC42)C3)c1=O (stereo partly shown) [III-72] ?
Result: 3 to 5

Task: Same thing, different compound: COC(=O)/C=C/CC[C@H](NC(=O)c1[nH]c2ccccc2c1C)C(=O)Nc1cccn(CC(=O)NC2C3CC4CC(C3)CC2C4)c1=O (stereo partly shown) [III-10]
Result: 3 to 5

Task: Another compound: COC(=O)/C=C/CC[C@H](NC(=O)c1oc2ccccc2c1C)C(=O)Nc1cccn(CC(=O)NC2CC3C=CC2C3)c1=O (stereo partly shown) [III-66]
Result: 1 to 3

Task: Then what about the compound COC(=O)/C=C/CC[C@H](NC(=O)c1cnccn1)C(=O)Nc1cccn(CC(=O)NC2C3CC4CC(C3)CC2C4)c1=O (stereo partly shown) [III-24] ?
Result: 1 to 3

Cited source: patent US20240317708A1
